EXPERIMENTAL SYSTEM: Peroxisome proliferator-activated receptor gamma (Mus musculus)
PROTOCOL NOTES: Agonist activity at mouse PPARgamma expressed in CV1 cells co-expressing tk-PPRE-luciferase vector assessed as transient transactivation at 20 uM after 24 hrs by luciferase reporter gene transactivation assay relative to rosiglitazone
Type: functional, cell-based
EXPERIMENTAL SETUP: CV-1
Activity values for the compounds below.

Examples with answers:
CN(CCOc1ccc2c(c1)c(CC(=O)O)cn2C)c1nc2ccccc2o1    58.6%
CN(CCCOc1ccc2[nH]cc(CC(=O)O)c2c1)c1nc2ccccc2o1    18.3%
CCn1c(C(=O)O)cc2ccc(OCCN(C)c3nc4ccccc4o3)cc21    23.3%

Next, consider the following compound.
So what does the record say about Activity for CCn1c(C(=O)O)cc2ccc(OCCN(C)c3nc4ccccc4s3)cc21 ?
66.4%
